Readings of protein stability index for the listed variants
B1: TRIM63 (parent)
chain: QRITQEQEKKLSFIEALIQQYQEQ

# Variants of: B1
# Assay protocol: protein stability index of a GFP-peptide fusion (GPS, HEK-293T) (PSI 1-6); higher = more stable;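 further: lentivirally expressed fusions sorted by FACS into six bins by GFP to DsRed ratio, PSI derived from sequencing read proportions per bin multiplied by bin number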
# Experimental conditions: c terminus: a fixed tail appended
API note: the answer field is a bare number with no unit suffix.

Field: example entries. Status: answers known.
QRIAQEQEKKLSFIEALIQQYQEQ [T4A]
3.01
QRITQEQEKKFSFIEALIQQYQEQ [L11F]
1.87
ERITQEQEKKLSFIEALIQQYQEQ [Q1E]
3.15

Request: Which protein stability index is reported for this variant? QRTTQEQEKKLSFIEALIQQYQEQ [I3T]
Result: 2.39

Request: Field request: protein stability index | item: QYITQEQEKKLSFIEALIQQYQEQ [R2Y]
Result: 1.75

Request: Can you share its protein stability index? I mean this variant: TRITQEQEKKLSFIEALIQQYQEQ [Q1T]
Result: 2.19

Request: Look up protein stability index: QRITQEQEQKLSFIEALIQQYQEQ [K9Q]
Result: 2.82

Request: I'd like to know its protein stability index. The variant in question is QRITQEQEKNLSFIEALIQQYQEQ [K10N]
Result: 3

Request: Form field: reported protein stability index of QRITQEQEKKLSFIENLIQQYQEQ [A16N]
Result: 2.69

Request: So what's the measured protein stability index for this one? QRITQEQEKKLSFIEALCQQYQEQ [I18C]
Result: 2.67

Request: Given the entry QRITQEQEKKLSFIEALIQQNQEQ [Y21N] , report its measured protein stability index.
Result: 4.41

Request: Which protein stability index is reported for this variant? QRITQEQEKKLSFIEALIQQYQEC [Q24C]
Result: 2.51

Request: protein stability index for QRMTQEQEKKLSFIEALIQQYQEQ [I3M] ?
Result: 1.83

Request: For QRITQEQEKFLSFIEALIQQYQEQ [K10F] , what is its reported protein stability index?
Result: 2.1

Request: # get_value(readout='protein stability index', item= QRITQEQEWKLSFIEALIQQYQEQ [K9W] )
Result: 3.8

Request: // lookup protein stability index for QRETQEQEKKLSFIEALIQQYQEQ [I3E]
Result: 2.45

Request: Which measured protein stability index value corresponds to QRITQEQEKKLSFIEALIQQKQEQ [Y21K] ?
Result: 3.8

Request: Requested field: protein stability index. Item: DRITQEQEKKLSFIEALIQQYQEQ [Q1D]
Result: 2.32

Request: So what's the measured protein stability index for this one? YRITQEQEKKLSFIEALIQQYQEQ [Q1Y]
Result: 1.95

Request: # lookup: protein stability index of QRITQRQEKKLSFIEALIQQYQEQ [E6R]
Result: 1.88
